# STUDY_SYSTEM: T1, Abp1, P15891
# T1 sequence (P15891 535-592, looked up): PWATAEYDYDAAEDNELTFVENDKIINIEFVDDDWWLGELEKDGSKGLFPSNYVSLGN
# PROTOCOL: SPOT array
# CONDITION_PARAMETERS: median of control spots 935
hey, just use true (1) if measured SPOT intensity is less than 20, otherwise false (0)

{"BINDER": "NQARKPFLLPATELS", "CAT": "true (1)"}
{"BINDER": "DDEDVPPQLPTRTKS", "CAT": "true (1)"}

Prompt line: Say whether its SPOT intensity is strictly beneath 20. Entry: YVRRRPRVRLEPLLS
Response line: false (0)

Prompt line: Say whether its SPOT intensity is strictly beneath 20. Entry: GKLKHIPRRPYEIER
Response line: true (1)

Prompt line: Say whether its SPOT intensity is strictly beneath 20. Entry: FPPKRKPLLRPQRSD
Response line: false (0)
